Reference for the values: patent US20250197359A1

Assay method text: Metabolic stability in human liver microsomes
Format: in vitro ADME
Condition info: human, liver microsomes, read-out: t1/2, min

# Molecule, half-life (h)
data = [
    ("N/C(=N\\C(=N\\S(=O)(=O)c1ccc(C(F)(F)F)cc1)N1CCC(c2ccccc2)C(c2ccc(Cl)cc2)=N1)c1ccc(F)cc1F (stereo not shown) [Compound 10p]", 4.8),
    ("CC(C)(C)/C(N)=N/C(=N/S(=O)(=O)c1ccc(C(F)(F)F)cc1)N1CCC(c2ccccc2)C(c2ccc(Cl)cc2)=N1 (stereo not shown) [Compound 10o]", 1.07),
    ("C/C(N)=N\\C(=N\\S(=O)(=O)c1ccc(C(F)(F)F)cc1)N1CCC(c2ccccc2)C(c2ccc(Cl)cc2)=N1 (stereo not shown) [Compound 10b]", 12.7),
    ("CC(C)C(N/C(=N/S(=O)(=O)c1ccc(C(F)(F)F)cc1)N1CCC(c2ccccc2)C(c2ccc(Cl)cc2)=N1)C(N)=O (single isomer, unassigned) [Compound 29a]", 1.22),
]

====

Target of assay: Cannabinoid receptor 1 (Homo sapiens)
Construct: expressed in transfected cells; host or cells: MPXNomad-CB1 HEK293 cell line
Sequence (P21554 whole entry): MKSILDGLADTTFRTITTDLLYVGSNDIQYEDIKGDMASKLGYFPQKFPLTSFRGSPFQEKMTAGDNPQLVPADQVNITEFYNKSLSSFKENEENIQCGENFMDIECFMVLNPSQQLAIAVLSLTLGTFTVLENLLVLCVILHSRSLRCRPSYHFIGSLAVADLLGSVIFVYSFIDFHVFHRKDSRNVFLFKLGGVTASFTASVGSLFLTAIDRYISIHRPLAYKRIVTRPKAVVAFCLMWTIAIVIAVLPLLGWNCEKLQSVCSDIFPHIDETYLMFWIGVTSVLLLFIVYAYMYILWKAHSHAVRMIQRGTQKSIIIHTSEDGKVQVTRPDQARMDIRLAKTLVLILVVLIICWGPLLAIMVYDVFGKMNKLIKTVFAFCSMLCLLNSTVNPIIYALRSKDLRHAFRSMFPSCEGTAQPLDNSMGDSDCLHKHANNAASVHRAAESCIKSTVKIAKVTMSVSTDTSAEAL
Assay method text: cAMP signaling, red cAMPNomad biosensor, MPXNomad-CB1 HEK293 cell line, antagonism of CP55940
Assay type: cell-based
Condition info: vs CP55940, MPXNomad-CB1 HEK293
pIC50: −log10 of the molar value.
Measured parameter: pIC50

# Molecule, Value
data = [
    ("CC(C)C(N/C(=N/S(=O)(=O)c1ccc(C(F)(F)F)cc1)N1CCC(c2ccccc2)C(c2ccc(Cl)cc2)=N1)C(N)=O (stereo not shown)", 9.09),
]

====

Target of assay: UniProtKB P21554
Assay method text: CB1 radioligand binding assay
Set-up: species or system human
Condition info: read-out: Ki (CB1)
pKi: −log10 of the molar value.
Each entry gets Not satisfied if its pKi stays under 7, and Satisfied if its pKi is 7 or above.

# Compound, Assigned category
measured = [
    ("O=C(O)CCCN/C(=N/S(=O)(=O)c1ccc(C(F)(F)F)cc1)N1CCC(c2ccccc2)C(c2ccc(Cl)cc2)=N1 (stereo not shown)", "Not satisfied"),
    ("N/C(=N\\C(=N\\S(=O)(=O)c1ccc(C(F)(F)F)cc1)N1CCC(c2ccccc2)C(c2ccc(F)cc2)=N1)c1ccccn1 (stereo not shown) [Compound 10zf]", "Satisfied"),
    ("C/C(N)=N\\C(=N\\S(=O)(=O)c1ccc(I)cc1)N1CCC(c2ccccc2)C(c2ccc(Cl)cc2)=N1 (stereo not shown) [Compound 10i]", "Satisfied"),
    ("COc1ccc(S(=O)(=O)/N=C(/N=C(/N)SC)N2CCC(c3ccccc3)C(c3ccc(Cl)cc3)=N2)cc1 (stereo not shown) [Compound 11h]", "Not satisfied"),
    ("O=S(=O)(/N=C(/N=C1\\CCCCN1)N1CCC(c2ccccc2)C(c2ccc(Cl)cc2)=N1)c1ccc2ccccc2c1 (stereo not shown)", "Satisfied"),
]

====

Assay method text: Metabolic stability in mouse liver microsomes
Format: in vitro ADME
Measured parameter: t1/2, min (min)

# Molecule, Value
data = [
    ("CC(C)(C)/C(N)=N/C(=N/S(=O)(=O)c1ccc(C(F)(F)F)cc1)N1CCC(c2ccccc2)C(c2ccc(Cl)cc2)=N1 (stereo not shown) [Compound 10o]", 73.8),
    ("CC(C)C(N/C(=N/S(=O)(=O)c1ccc(C(F)(F)F)cc1)N1CCC(c2ccccc2)C(c2ccc(Cl)cc2)=N1)C(N)=O (single isomer, unassigned) [Compound 29a]", 7.1),
    ("N/C(=N\\C(=N\\S(=O)(=O)c1ccc(C(F)(F)F)cc1)N1CCC(c2ccccc2)C(c2ccc(Cl)cc2)=N1)c1ccc(F)cc1F (stereo not shown) [Compound 10p]", 67.8),
    ("CC(C)C(N/C(=N/S(=O)(=O)c1ccc(C(F)(F)F)cc1)N1CCC(c2ccccc2)C(c2ccc(Cl)cc2)=N1)C(N)=O (single isomer, unassigned) [Compound 29b]", 1.9),
]
